# Subject Of Test: CaMyo5
# Test Method Notes: SPOT peptide array binding signal intensity (averaged, normalized) (arbitrary units (background-subtracted, floor 0; scale differs between SH3 domains)); higher = stronger binding of the SH3 domain to the peptide
Documented SPOT peptide array binding signal intensity across a set of binders

Use the examples below as a reference point.
[[record]]
binder = "HVRRSILALPLGVLL"
reported_value = 5.25

[[record]]
binder = "RKLRTVPGVPLIHLT"
reported_value = 0.25

[[record]]
binder = "ALRRRLPVTRSKINW"
reported_value = 5.5

[[record]]
binder = "PPIPIVPSSPAPPLP"
reported_value = 833

[[record]]
binder = "HPRFVSPRIPSRIVK"
reported_value = 13.8


Answer with the recorded SPOT peptide array binding signal intensity for the binder listed here: `RRSKSLPITPKSIFN`
3

Annotate the binder `RSVKRPRRAPRPVVS` with its measured SPOT peptide array binding signal intensity.
2

Given the binder `KMSRSPPRPPSLKII` , write its reported SPOT peptide array binding signal intensity.
44.5

Identify the reported SPOT peptide array binding signal intensity for the following entry. `DKKTKPTPPPKPSHL`
≤ 0

State its SPOT peptide array binding signal intensity for this binder: `FTLPPPPPPPGLDEL`
33.8
